- tgt: PD-L1 antigen (ELISA of Example 2) (human, UniProt Q9NZQ7 19-239, limits assumed)
- Sequence (Q9NZQ7 19-239 limits assumed): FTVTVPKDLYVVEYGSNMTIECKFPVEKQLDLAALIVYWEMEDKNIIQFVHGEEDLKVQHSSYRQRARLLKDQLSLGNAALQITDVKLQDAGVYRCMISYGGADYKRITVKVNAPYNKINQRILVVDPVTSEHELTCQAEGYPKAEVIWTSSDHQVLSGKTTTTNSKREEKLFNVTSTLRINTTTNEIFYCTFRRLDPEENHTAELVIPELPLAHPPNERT
- experiment-summary: ELISA, signal on PD-L1 antigen
assay-metric: ELISA
Write the value as a bare number.

Consider the worked cases shown below.
binder: 3LIG33 (VHH, PD-L1 VHH) VHH: QVQLQESGGGLVQPGTSLRLSCAASGFTLDYYAIGWFRQAPGKEREEVSCISSSDGSTYYADSVKGRFTISRDNAKNTVNLQMNSLKPEDTAVYYCATDGWSSCRHGINEYLYWGQGTQVTVSS
ELISA: 1.76
--
binder: 2LIG99 (VHH, PD-L1 VHH) VHH: QVQLQESGGGLVQAGGSLRLSCTASGTIFSINRMDWFRQAPGKQRELVALITSDGTPAYADSAKGRFTISRDNTKKTVSLQMNSLKPEDTAVYYCHVSSGVYNYWGQGTQVTVSS
ELISA: 2.11
--
binder: 3LIG3 (VHH, PD-L1 VHH) VHH: QVQLQESGGGLVQPGGSLRLSCAASGFTLDYYAIGWFRQAPGKEREEVSCISSSDGSTYYADSVKGRFTISRDNAKNTVNLQMNSLKPEDTAVYYCATDGWSSCRHGINEYLYWGQGTQVTVSS
ELISA: 0.58

Moving on to another binder below.
Find the recorded ELISA belonging to 2LIG34 (VHH, PD-L1 VHH) VHH: QVQLQESGGGSVQAGGSLRLSCTASGTIFSINRMDWFRQAPGKQRELVALITSDGTPTYADSAKGRFTISRDNTKKTVSLQMNSLKPEDTAVYYCHVSSGVYNYWGQGTQVTVSS and report it.
0.568
